Quick list: log10 Ki per entry.
# test_target: human cloned 5-HT6 receptors (Homo sapiens)
# Construct: expressed in transfected cells; host or cells: HeLa cells (membrane preparation)
# Sequence (P50406 whole entry): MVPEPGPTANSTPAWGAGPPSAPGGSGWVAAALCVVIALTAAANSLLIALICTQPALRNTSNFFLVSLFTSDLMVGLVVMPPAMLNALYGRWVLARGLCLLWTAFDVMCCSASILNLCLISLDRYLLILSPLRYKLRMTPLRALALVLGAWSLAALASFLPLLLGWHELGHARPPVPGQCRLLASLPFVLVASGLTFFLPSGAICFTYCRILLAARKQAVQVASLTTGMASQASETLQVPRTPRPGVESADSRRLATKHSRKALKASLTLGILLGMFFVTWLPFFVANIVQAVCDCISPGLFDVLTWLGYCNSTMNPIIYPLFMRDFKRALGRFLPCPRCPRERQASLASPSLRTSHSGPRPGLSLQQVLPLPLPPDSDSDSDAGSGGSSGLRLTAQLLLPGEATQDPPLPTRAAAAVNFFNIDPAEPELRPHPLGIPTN
# experiment_notes: 5-HT6 binding affinity, [3H]-LSD displacement on membranes of Hela cells expressing human cloned 5-HT6 receptors
# conditions: [3H]-LSD 3.0 nM, Hela cell membranes, 120 min at room temperature; read-out: 5-HT6 Binding Ki
Where a name gives a salt, the structure may show the parent alone.
In our notation, the value equals log10 of Ki in nM.

{"columns": ["compound", "log10 Ki"],
 "data": [
  ["COc1cc2c(cc1N1CCNCC1)c(S(=O)(=O)c1ccccc1)nn2-c1ccccc1 [Example 9, hydrochloride]", 1.99]
]}

The compound listed as CN1CCN(c2ccc3[nH]nc(S(=O)(=O)c4ccccc4F)c3c2)CC1 [Example 58] shows log10 Ki equal to 0.48

The compound listed as CN1CCN(c2ccc3[nH]nc(S(=O)(=O)c4ccc(Cl)s4)c3c2)CC1 [Example 15] shows log10 Ki equal to 0.30

The compound listed as CCCCc1ccc(S(=O)(=O)c2n[nH]c3ccc(N4CCN(C)CC4)cc23)cc1 shows log10 Ki equal to 1.41

The compound listed as CN1CCN(c2ccc3[nH]nc(S(=O)(=O)c4ccc(F)cc4F)c3c2)CC1 shows log10 Ki equal to 1.15

The compound listed as CC(C)c1ccc(S(=O)(=O)c2n[nH]c3c(N4CCN(C)CC4)cc(Cl)cc23)cc1 shows log10 Ki equal to 1.34

The compound listed as CN1CCN(c2ccc3[nH]nc(S(=O)(=O)c4ccc(S(C)(=O)=O)cc4)c3c2)CC1 shows log10 Ki equal to 1.79

The compound listed as CN1CCN(c2ccc3[nH]nc(S(=O)(=O)c4cccc(F)c4)c3c2)CC1 shows log10 Ki equal to 0.30
